B1: H2-Kb / B7 (parent)
chain 1: GQQVQQSPTSLVLQEGENAELQCNFSTSLNSMQWFYQRPGGSLVSVFYNPSGTKQSGRLTSTTVIKERRSSLHISSSQITDSGTYLCAMERDMGYKLTFGTGTSLLVDP
chain 2: EAAVTQSPRNKVAVTGGKVTLSCNQTNNHNNMYWYRQDTGHGLRLIHYSYGAGSTEKGDIPDGYKASRPSQENFSLILELATPSQTSVYFCASGDPGDQDTQYFGPGTRLLVL
chain 3: not shown
chain 4: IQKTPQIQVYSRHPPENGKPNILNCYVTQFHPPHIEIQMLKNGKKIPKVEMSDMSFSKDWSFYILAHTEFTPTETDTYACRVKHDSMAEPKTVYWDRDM
chain 5: SIINFEKL

Variants of: B1
TEST_METHOD_NOTES: % of reporter cells activated (NFAT-GFP), raw; further: test concentration or dose not given here
EXPERIMENTAL_PARAMETERS: with B7; scale: % of reporter cells activated
PROPERTY: ratio to parent

Some variants with recorded ratio to parent:
// query Entry chain 5 I3D : reported ratio to parent = ?
// result 1.11

// query Entry chain 5 S1C : reported ratio to parent = ?
// result 1.8

// query Entry chain 5 N4V : reported ratio to parent = ?
// result 0.985

[1] chain 5 S1L
[2] chain 5 F5A
// query Between 1 and 2 , which one has the lower reported ratio to parent value? Please identify the chosen entry by its label.
// result 1
(1: 1.03, 2: 1.62)

[P] chain 5 E6V
[Q] chain 5 I3K
[R] chain 5 L8F
// query Rank order required: ratio to parent, descending. Note for the reader: the ranking is given by listing the labels in the order requested.
// result Q, P, R
(Q: 1.75, P: 1.02, R: 0.677)

[1] chain 5 E6K
[2] chain 5 F5S
// query Between 1 and 2 , which one has the lower reported ratio to parent value? Please identify the chosen entry by its label.
// result 2
(2: 0.831, 1: 1.32)

Data origin, for the record: paper PMC11480844
